Molecular target: NaV1.3 (Homo sapiens, UniProt Q9NY46)
Sequence (Q9NY46 whole entry): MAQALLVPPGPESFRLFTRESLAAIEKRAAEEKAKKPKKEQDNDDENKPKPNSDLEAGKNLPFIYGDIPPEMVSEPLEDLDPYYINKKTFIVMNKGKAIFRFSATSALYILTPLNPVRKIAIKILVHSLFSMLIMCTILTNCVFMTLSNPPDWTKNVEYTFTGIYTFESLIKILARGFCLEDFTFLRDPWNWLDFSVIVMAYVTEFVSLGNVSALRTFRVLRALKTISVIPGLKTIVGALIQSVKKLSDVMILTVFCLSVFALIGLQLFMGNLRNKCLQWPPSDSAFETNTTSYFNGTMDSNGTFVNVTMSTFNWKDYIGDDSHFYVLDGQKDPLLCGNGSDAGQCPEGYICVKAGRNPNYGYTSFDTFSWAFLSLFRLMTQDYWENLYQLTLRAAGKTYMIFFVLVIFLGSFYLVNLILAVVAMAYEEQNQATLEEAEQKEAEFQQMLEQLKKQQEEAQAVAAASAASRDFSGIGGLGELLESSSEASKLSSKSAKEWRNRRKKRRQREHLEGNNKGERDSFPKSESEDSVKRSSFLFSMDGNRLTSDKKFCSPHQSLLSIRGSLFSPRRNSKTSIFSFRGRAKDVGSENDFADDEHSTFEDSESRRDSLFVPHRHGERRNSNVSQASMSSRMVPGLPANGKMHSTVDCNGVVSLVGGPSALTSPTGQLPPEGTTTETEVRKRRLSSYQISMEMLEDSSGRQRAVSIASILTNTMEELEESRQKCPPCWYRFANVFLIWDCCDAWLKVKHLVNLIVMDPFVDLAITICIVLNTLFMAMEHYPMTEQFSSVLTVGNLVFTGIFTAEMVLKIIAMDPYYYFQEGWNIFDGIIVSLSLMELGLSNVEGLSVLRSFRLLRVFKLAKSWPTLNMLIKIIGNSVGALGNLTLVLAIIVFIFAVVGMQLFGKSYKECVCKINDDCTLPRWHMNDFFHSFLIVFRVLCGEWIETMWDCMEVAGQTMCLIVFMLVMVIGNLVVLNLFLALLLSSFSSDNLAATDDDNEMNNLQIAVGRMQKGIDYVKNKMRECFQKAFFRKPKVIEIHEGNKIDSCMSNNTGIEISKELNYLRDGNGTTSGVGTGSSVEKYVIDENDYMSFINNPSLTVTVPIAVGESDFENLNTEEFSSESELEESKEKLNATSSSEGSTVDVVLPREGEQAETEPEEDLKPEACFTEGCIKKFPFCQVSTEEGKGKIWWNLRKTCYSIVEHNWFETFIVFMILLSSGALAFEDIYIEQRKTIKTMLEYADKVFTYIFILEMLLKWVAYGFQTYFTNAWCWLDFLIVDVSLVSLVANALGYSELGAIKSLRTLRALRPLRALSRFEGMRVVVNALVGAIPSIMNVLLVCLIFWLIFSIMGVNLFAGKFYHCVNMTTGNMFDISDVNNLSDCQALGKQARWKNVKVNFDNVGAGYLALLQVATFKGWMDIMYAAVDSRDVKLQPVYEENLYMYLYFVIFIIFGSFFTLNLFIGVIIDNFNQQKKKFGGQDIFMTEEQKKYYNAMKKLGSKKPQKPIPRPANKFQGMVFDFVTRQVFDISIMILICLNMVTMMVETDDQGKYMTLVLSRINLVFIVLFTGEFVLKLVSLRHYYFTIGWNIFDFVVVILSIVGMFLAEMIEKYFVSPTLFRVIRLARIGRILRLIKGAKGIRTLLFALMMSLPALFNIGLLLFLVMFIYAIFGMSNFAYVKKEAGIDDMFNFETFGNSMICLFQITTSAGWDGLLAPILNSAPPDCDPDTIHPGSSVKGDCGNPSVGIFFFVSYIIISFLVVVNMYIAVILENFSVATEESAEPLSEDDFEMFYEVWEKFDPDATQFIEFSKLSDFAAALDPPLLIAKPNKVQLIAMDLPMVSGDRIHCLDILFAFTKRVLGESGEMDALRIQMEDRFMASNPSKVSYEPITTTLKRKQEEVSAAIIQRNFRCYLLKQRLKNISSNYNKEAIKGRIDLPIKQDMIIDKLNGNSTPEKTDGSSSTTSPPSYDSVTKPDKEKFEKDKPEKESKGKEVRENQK
Test: VIPR optical membrane potential assay, NaV 1.3 inhibition
Format: cell-based
Parameters: expressed in transfected cells; host or cells: HEK293
Details: activity against NaV 1.3 channel
quantity kind: IC50

Observe how each entry below is paired with its result.
INSERT INTO results (compound, recorded_measurement) VALUES
  ('NS(=O)(=O)c1cccc(NC(=O)c2cc(-c3ccc(Cl)cc3)cs2)c1 [Compound 19]', '10 to 20 µM'),
  ('Cc1oc(C(C)(C)C)nc1C(=O)Nc1cccc(S(N)(=O)=O)c1 [Compound 25]', '> 20 µM'),
  ('CC(C)(C)c1nnc(C(=O)Nc2cccc(S(N)(=O)=O)c2)s1 [Compound 23]', '> 20 µM'),
  ('CC(C)(C)c1ccc(C(=O)Nc2cccc(S(N)(=O)=O)c2)cn1 [Compound 22]', '> 20 µM');

Kindly review the next compound as well.
query: Tell me measured IC50 for Cc1coc(C)c1C(=O)Nc1cccc(S(N)(=O)=O)c1 [Compound 14] please.
result: > 20 µM

* * *

Listing of recorded pIC50 by entry.
Molecular target: NaV1.3 (Homo sapiens, UniProt Q9NY46)
Assay: VIPR optical membrane potential assay, NaV 1.3 inhibition
Type: cell-based
Set-up: expressed in transfected cells; host or cells: HEK293
Settings: activity against NaV 1.3 channel
pIC50: −log10 of the molar value.

Observe how each entry below is paired with its result.
INSERT INTO assay_data (compound, target_system, recorded_measurement) VALUES
  ('NS(=O)(=O)c1cccc(NC(=O)c2ccc(-c3cccc(C(F)(F)F)c3)o2)c1', 'NaV1.3 (Homo sapiens, UniProt Q9NY46)', '5.00 to 5.70'),
  ('Cc1oc(C(C)(C)C)cc1C(=O)Nc1cccc(S(N)(=O)=O)c1 [Compound 18]', 'NaV1.3 (Homo sapiens, UniProt Q9NY46)', '4.70 to 5.00'),
  ('Cc1oc(C(C)(C)C)c(CO)c1C(=O)Nc1cccc(S(N)(=O)=O)c1', 'NaV1.3 (Homo sapiens, UniProt Q9NY46)', '4.70 to 5.00'),
  ('Cc1oc(C(C)(C)C)c(CN2CCOCC2)c1C(=O)Nc1cccc(S(N)(=O)=O)c1', 'NaV1.3 (Homo sapiens, UniProt Q9NY46)', '< 4.70'),
  ('CC(C)(C)c1cc(C(=O)Nc2cccc(S(N)(=O)=O)c2)c(CN2CCCCC2)o1', 'NaV1.3 (Homo sapiens, UniProt Q9NY46)', '< 4.70');

query: Tell me measured pIC50 for C[C@@H](c1ccc(F)cc1)N1CCN(Cc2oc(C(C)(C)C)cc2C(=O)Nc2cccc(S(N)(=O)=O)c2)CC1 please.
result: 4.70 to 5.00

query: Tell me measured pIC50 for Cc1nc(C(C)(C)C)sc1C(=O)Nc1cccc(S(N)(=O)=O)c1 please.
result: < 4.70

query: Tell me measured pIC50 for Cn1nc(C(C)(C)C)nc1C(=O)Nc1cccc(S(N)(=O)=O)c1 please.
result: < 4.70

* * *

Molecular target: UniProt Q9Y5Y9
Sequence (Q9Y5Y9 whole entry): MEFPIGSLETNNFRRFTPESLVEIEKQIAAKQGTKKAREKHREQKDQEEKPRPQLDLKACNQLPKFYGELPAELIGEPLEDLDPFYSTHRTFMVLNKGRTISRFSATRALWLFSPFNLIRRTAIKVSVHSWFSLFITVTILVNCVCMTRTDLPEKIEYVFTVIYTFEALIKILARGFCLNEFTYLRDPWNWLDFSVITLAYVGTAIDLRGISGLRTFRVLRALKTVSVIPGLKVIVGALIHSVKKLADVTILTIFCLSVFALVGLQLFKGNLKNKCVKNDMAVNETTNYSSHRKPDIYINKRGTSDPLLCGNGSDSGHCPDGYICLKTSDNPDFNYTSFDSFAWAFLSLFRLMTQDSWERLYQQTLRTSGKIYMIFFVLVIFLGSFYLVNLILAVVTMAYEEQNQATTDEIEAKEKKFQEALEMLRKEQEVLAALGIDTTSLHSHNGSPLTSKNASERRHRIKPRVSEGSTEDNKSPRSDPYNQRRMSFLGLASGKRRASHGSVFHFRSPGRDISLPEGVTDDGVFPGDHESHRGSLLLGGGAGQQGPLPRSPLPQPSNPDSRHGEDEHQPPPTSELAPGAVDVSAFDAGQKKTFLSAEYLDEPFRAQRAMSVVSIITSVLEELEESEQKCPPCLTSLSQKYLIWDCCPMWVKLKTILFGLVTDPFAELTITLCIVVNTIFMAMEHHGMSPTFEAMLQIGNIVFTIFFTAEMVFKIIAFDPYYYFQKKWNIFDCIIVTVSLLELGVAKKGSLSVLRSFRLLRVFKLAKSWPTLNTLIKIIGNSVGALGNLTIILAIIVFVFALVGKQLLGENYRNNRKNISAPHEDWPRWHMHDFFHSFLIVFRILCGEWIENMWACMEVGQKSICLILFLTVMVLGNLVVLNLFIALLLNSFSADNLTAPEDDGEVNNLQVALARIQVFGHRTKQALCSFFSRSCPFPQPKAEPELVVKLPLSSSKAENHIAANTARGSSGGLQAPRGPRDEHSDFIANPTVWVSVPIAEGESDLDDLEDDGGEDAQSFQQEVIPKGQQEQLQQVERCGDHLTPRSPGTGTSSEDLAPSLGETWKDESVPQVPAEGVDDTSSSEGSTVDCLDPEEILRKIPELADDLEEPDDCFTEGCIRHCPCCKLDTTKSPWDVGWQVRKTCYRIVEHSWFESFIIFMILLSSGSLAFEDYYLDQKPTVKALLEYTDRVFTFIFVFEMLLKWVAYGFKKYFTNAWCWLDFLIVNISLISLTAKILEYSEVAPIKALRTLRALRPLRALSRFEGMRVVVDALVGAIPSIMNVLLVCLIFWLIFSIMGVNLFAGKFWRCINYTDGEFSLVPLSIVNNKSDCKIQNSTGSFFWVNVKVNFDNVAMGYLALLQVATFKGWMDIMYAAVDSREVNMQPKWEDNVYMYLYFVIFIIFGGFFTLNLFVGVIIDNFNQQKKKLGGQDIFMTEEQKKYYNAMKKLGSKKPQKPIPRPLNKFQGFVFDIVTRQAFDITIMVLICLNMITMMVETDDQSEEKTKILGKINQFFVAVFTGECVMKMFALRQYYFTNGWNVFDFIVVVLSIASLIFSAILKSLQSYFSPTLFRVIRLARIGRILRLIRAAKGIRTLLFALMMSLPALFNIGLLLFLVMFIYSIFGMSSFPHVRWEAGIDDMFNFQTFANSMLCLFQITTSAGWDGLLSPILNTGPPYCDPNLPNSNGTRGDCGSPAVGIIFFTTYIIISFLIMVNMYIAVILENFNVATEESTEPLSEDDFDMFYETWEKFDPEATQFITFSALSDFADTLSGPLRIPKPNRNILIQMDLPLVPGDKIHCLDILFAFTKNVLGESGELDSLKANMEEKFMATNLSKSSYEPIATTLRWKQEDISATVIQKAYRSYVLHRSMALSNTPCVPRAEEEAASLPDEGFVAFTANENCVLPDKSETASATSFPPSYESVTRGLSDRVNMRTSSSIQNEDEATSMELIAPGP
Assay: Optical membrane potential assay, NaV 1.8 inhibition
Type: cell-based
Settings: activity against NaV 1.8 channel
pIC50: −log10 of the molar value.
Listing of recorded pIC50 by entry.

Observe how each entry below is paired with its result.
INSERT INTO assay_data (compound, recorded_measurement) VALUES
  ('Cc1coc(C)c1C(=O)Nc1cccc(S(N)(=O)=O)c1', '< 4.70'),
  ('Cc1oc(C(C)(C)C)nc1C(=O)Nc1cccc(S(N)(=O)=O)c1', '4.70 to 5.00'),
  ('Cc1oc(C(C)(C)C)cc1C(=O)Nc1cccc(S(N)(=O)=O)c1 [Compound 3]', '> 5.70'),
  ('Cc1oc(CC(C)C)c(CN2CCCCC2)c1C(=O)Nc1cccc(S(N)(=O)=O)c1', '5.00 to 5.70'),
  ('CC(C)(C)c1cc(C(=O)Nc2cccc(S(N)(=O)=O)c2)c(CN2CCCCC2)o1', '5.00 to 5.70');

query: Tell me measured pIC50 for Cc1oc(C(C)(C)C)c(CN2CCOCC2)c1C(=O)Nc1cccc(S(N)(=O)=O)c1 please.
result: < 4.70

query: Tell me measured pIC50 for CC(C)(C)c1nnc(C(=O)Nc2cccc(S(N)(=O)=O)c2)s1 please.
result: < 4.70

query: Tell me measured pIC50 for NS(=O)(=O)c1cccc(NC(=O)c2cccnc2Oc2ccc(Cl)cc2)c1 please.
result: < 4.70

query: Tell me measured pIC50 for Cc1oc(CC(C)C)c(CN2CCOCC2)c1C(=O)Nc1cccc(S(N)(=O)=O)c1 please.
result: 4.70 to 5.00

query: Tell me measured pIC50 for Cc1oc(CC(C)C)c(CN2CCCC2)c1C(=O)Nc1cccc(S(N)(=O)=O)c1 please.
result: 4.70 to 5.00

* * *

Listing of recorded IC50 by entry.
Target: NaV1.3 (Homo sapiens, UniProt Q9NY46)
Assay: VIPR optical membrane potential assay, NaV 1.3 inhibition
Format: cell-based
Design: expressed in transfected cells; host or cells: HEK293
Conditions: activity against NaV 1.3 channel

Observe how each entry below is paired with its result.
INSERT INTO measurements (compound, target_system, recorded_measurement) VALUES
  ('Cc1oc(CC(C)C)c(CN2CCCC2)c1C(=O)Nc1cccc(S(N)(=O)=O)c1 [Compound 11]', 'NaV1.3 (Homo sapiens, UniProt Q9NY46)', '10 to 20 µM'),
  ('NS(=O)(=O)c1cc(NC(=O)c2cc(-c3cccc(Cl)c3)oc2C(F)(F)F)ccc1Cl [Compound 20]', 'NaV1.3 (Homo sapiens, UniProt Q9NY46)', '> 20 µM'),
  ('CCN(CC)Cc1oc(-c2ccccc2)cc1C(=O)Nc1cccc(S(N)(=O)=O)c1 [Compound 9]', 'NaV1.3 (Homo sapiens, UniProt Q9NY46)', '2 to 10 µM'),
  ('Cc1oc(CC(C)C)c(CN2CCCCC2)c1C(=O)Nc1cccc(S(N)(=O)=O)c1 [Compound 12]', 'NaV1.3 (Homo sapiens, UniProt Q9NY46)', '10 to 20 µM'),
  ('NS(=O)(=O)c1cccc(NC(=O)c2cccnc2Oc2ccc(Cl)cc2)c1 [Compound 21]', 'NaV1.3 (Homo sapiens, UniProt Q9NY46)', '> 20 µM');

query: Tell me measured IC50 for Cc1ccc(OCc2occc2C(=O)Nc2cccc(S(N)(=O)=O)c2)cc1 [Compound 10] please.
result: > 20 µM

query: Tell me measured IC50 for CC(C)(C)c1nc(C(=O)Nc2cccc(S(N)(=O)=O)c2)n(Cc2ccccc2)n1 [Compound 26] please.
result: > 20 µM

query: Tell me measured IC50 for Cc1oc(CC(C)C)c(CN2CCOCC2)c1C(=O)Nc1cccc(S(N)(=O)=O)c1 [Compound 7] please.
result: > 20 µM

query: Tell me measured IC50 for Cc1oc(C(C)(C)C)cc1C(=O)Nc1cccc(S(N)(=O)=O)c1 [Compound 3] please.
result: > 20 µM

Sourced from patent US8519137B2
